# protocol: Proportions of cis and trans at the photostationary state in DMSO from absorbance spectra (Ernst Fischer method)
# Format: physicochemical
# assaySetup: 470 nm
measuredMetric: %cis at the photostationary state

Incoming: For the molecule Cc1cc(OCC(O)C(C)(C)C)ccc1N=Nc1cccc(-c2ccc(C(=O)O)cc2)c1 (stereo not shown) [Compound 11b] , what %cis at the photostationary state is on record?
Outgoing: 31,30%

Incoming: Look at this molecule and give its reported %cis at the photostationary state. Cc1cc(OCC(O)C(C)(C)C)ccc1/N=N/c1cccc(-c2ccc(C(=O)O)cc2C)c1 (stereo not shown) [Compound 11d]
Outgoing: 28,11%

Incoming: GET /values?readout=%cis at the photostationary state&item= Cc1cc(/N=N/c2cccc(-c3ccc(C(=O)O)cc3C)c2)ccc1OCC(O)C(C)(C)C (stereo not shown) [Compound 11c]
Outgoing: 31,49%

Incoming: What does the data say about its %cis at the photostationary state? Entry: Cc1cc(/N=N/c2cccc(-c3ccc(CO)cc3)c2)ccc1OCC(O)C(C)(C)C (stereo not shown) [Compound 12a]
Outgoing: 33,06%

* * *

# protocol: Proportions of cis and trans at the photostationary state in DMSO from absorbance spectra (Ernst Fischer method)
# Type: physicochemical
# assaySetup: 405 nm
measuredMetric: %cis at the photostationary state

{"compound": "Cc1cc(/N=N/c2cccc(-c3ccc(CO)cc3)c2)ccc1OCC(O)C(C)(C)C (stereo not shown) [Compound 12a]", "measuredMetric": "%cis at the photostationary state", "observedValue": "63,64%"}

Incoming: Quick check: %cis at the photostationary state of Cc1cc(/N=N/c2cccc(-c3ccc(C(=O)O)cc3)c2)ccc1OCC(O)C(C)(C)C (stereo not shown) [Compound 11a] ?
Outgoing: 60,54%

Incoming: # input compound: Cc1cc(OCC(O)C(C)(C)C)ccc1/N=N/c1cccc(-c2ccc(CO)cc2C)c1 (stereo not shown) [Compound 12d] ; wanted: its %cis at the photostationary state
Outgoing: 63,77%

Incoming: Fill in the blank: the reported %cis at the photostationary state of Cc1cc(OCC(O)C(C)(C)C)ccc1N=Nc1cccc(-c2ccc(C(=O)O)cc2)c1 (stereo not shown) [Compound 11b] is ____.
Outgoing: 63,64%

* * *

# protocol: UV-Vis absorption spectra and thermal relaxation of the cis isomers in DMSO
# Format: physicochemical
# assaySetup: 60 μM in 100% DMSO, 37 °C
measuredMetric: t 1/2 (thermal relaxation of cis) (h)

# example entries with known answers
{"compound": "Cc1cc(/N=N/c2cccc(-c3ccc(CO)cc3C)c2)ccc1OCC(O)C(C)(C)C (stereo not shown) [Compound 12c]", "t 1/2 (thermal relaxation of cis), h": 23.2}
{"compound": "Cc1cc(OCC(O)C(C)(C)C)ccc1N=Nc1cccc(-c2ccc(C(=O)O)cc2)c1 (stereo not shown) [Compound 11b]", "t 1/2 (thermal relaxation of cis), h": 20.5}

a: COC(=O)c1ccc(-c2cccc(/N=N/c3ccc(OCC(O)C(C)(C)C)cc3C)c2)c(C)c1 (stereo not shown) [Compound 10d]
b: Cc1cc(/N=N/c2cccc(-c3ccc(C(=O)O)cc3C)c2)ccc1OCC(O)C(C)(C)C (stereo not shown) [Compound 11c]
Incoming: Would you kindly point out which of a and b has the smaller t 1/2 (thermal relaxation of cis) figure? Response format: the label of the selected entry.
Outgoing: a
(a: 8.2 h, b: 25.4 h)

* * *

# protocol: UV-Vis absorption spectra and thermal relaxation of the cis isomers in DMSO
# Assay type: physicochemical
# assaySetup: 60 μM in 100% DMSO, 37 °C; after illumination
measuredMetric: λn−π* (cis) (nm)

{"molecule": "Cc1cc(/N=N/c2cccc(-c3ccc(CO)cc3)c2)ccc1OCC(O)C(C)(C)C (stereo not drawn) [Compound 12a]", "unitText": "nm", "observedValue": 444}
{"molecule": "COC(=O)c1ccc(-c2cccc(/N=N/c3ccc(OCC(O)C(C)(C)C)cc3C)c2)c(C)c1 (stereo not drawn) [Compound 10d]", "unitText": "nm", "observedValue": 438}
{"molecule": "Cc1cc(/N=N/c2cccc(-c3ccc(CO)cc3C)c2)ccc1OCC(O)C(C)(C)C (stereo not drawn) [Compound 12c]", "unitText": "nm", "observedValue": 444}
{"molecule": "Cc1cc(OCC(O)C(C)(C)C)ccc1/N=N/c1cccc(-c2ccc(CO)cc2C)c1 (stereo not drawn) [Compound 12d]", "unitText": "nm", "observedValue": 446}
{"molecule": "Cc1cc(/N=N/c2cccc(-c3ccc(C(=O)O)cc3)c2)ccc1OCC(O)C(C)(C)C (stereo not drawn) [Compound 11a]", "unitText": "nm", "observedValue": 440}
{"molecule": "Cc1cc(OCC(O)C(C)(C)C)ccc1N=Nc1cccc(-c2ccc(C(=O)O)cc2)c1 (stereo not drawn) [Compound 11b]", "unitText": "nm", "observedValue": 442}
{"molecule": "Cc1cc(/N=N/c2cccc(-c3ccc(C(=O)O)cc3C)c2)ccc1OCC(O)C(C)(C)C (stereo not drawn) [Compound 11c]", "unitText": "nm", "observedValue": 444}
{"molecule": "COC(=O)c1ccc(-c2cccc(/N=N/c3ccc(OCC(O)C(C)(C)C)c(C)c3)c2)cc1 (stereo not drawn) [Compound 10a]", "unitText": "nm", "observedValue": 446}
{"molecule": "COC(=O)c1ccc(-c2cccc(/N=N/c3ccc(OCC(O)C(C)(C)C)c(C)c3)c2)c(C)c1 (stereo not drawn) [Compound 10c]", "unitText": "nm", "observedValue": 444}
{"molecule": "COC(=O)c1ccc(-c2cccc(/N=N/c3ccc(OCC(O)C(C)(C)C)cc3C)c2)cc1 (stereo not drawn) [Compound 10b]", "unitText": "nm", "observedValue": 440}
{"molecule": "Cc1cc(OCC(O)C(C)(C)C)ccc1/N=N/c1cccc(-c2ccc(CO)cc2)c1 (stereo not drawn) [Compound 12b]", "unitText": "nm", "observedValue": 444}
{"molecule": "Cc1cc(OCC(O)C(C)(C)C)ccc1/N=N/c1cccc(-c2ccc(C(=O)O)cc2C)c1 (stereo not drawn) [Compound 11d]", "unitText": "nm", "observedValue": 444}

The values you see were collected from paper PMC12746157.
